tested on: THP-1 cells; test: In vitro antiproliferative CCK-8 assay, THP-1; type: cell-based; settings: Homo sapiens, dose of 1 μM, mean of three experiments, read-out: THP-1 percentage inhibitory rate
ENDPOINT: inhibition at 1 µM (%)

>>> df
                                chem_smiles  endpoint_unit  observed_measurement
0  C=CC(=O)Nc1ccc(-c2cc(C(=O)N3CCN(c4ccc(OC)cc4)CC3)c3ccccc3n2)cc1              %                  12.4
1  C=CC(=O)Nc1ccc(-c2cc(C(=O)Nc3cccc(OC)c3)c3ccccc3n2)cc1              %                  35.4
2  C=CC(=O)Nc1ccc(-c2cc(C(=O)Nc3ccc(OC)cc3)c3ccccc3n2)cc1              %                  13.3
3  C=CC(=O)Nc1ccc(-c2cc(C(=O)N3CCN(CCc4ccccc4)CC3)c3ccccc3n2)cc1              %                  11.7

Recorded values, source paper PMC9005971.
